Tested on: GFP-14-3-3β and its binding proteins
Experiment: GFP-14-3-3β co-IP with LC-MS/MS label-free quantification, untreated versus PP1c-treated
Set-up: species or system human
Conditions: PP1 vs untreated; label-free quantification
PROPERTY NAME: Difference (log2), PP1 vs untreated

molecule="TMCO1 (protein, UniProt Q9UM00 1-239, looked up) Calcium load-activated …: MPRKRKCDLRAVRVGLLLGGGGVYGSRFRFTFPGCRALSPWRVRVQRRRCEMSTMFADTLLIVFISVCTALLAEGITWVLVYRTDKYKRLKAEVEKQSKKLEKKKETITESAGRQQKKKIERQEEKLKNNNRDLSMVRMKSMFAIGFCFTALMGMFNSIFDGRVVAKLPFTPLSYIQGLSHRNLLGDDTTDCSFIFLYILCTMSIRQNIQKILGLAPSRAATKQAGGFLGPPPPSGKFS" reported=0.8935
molecule="VDAC2 (protein, UniProt P45880 2-294, looked up) Non-selective voltage-gated …: ATHGQTCARPMCIPPSYADLGKAARDIFNKGFGFGLVKLDVKTKSCSGVEFSTSGSSNTDTGKVTGTLETKYKWCEYGLTFTEKWNTDNTLGTEIAIEDQICQGLKLTFDTTFSPNTGKKSGKIKSSYKRECINLGCDVDFDFAGPAIHGSAVFGYEGWLAGYQMTFDSAKSKLTRNNFAVGYRTGDFQLHTNVNDGTEFGGSIYQKVCEDLDTSVNLAWTSGTNCTRFGIAAKYQLDPTASISAKVNNSSLIGVGYTQTLRPGVKLTLSALVDGKSINAGGHKVGLALELEA" reported=0.9262
